# Test system: Caenorhabditis elegans N2
# Assay text: mean nematode size ln(EXT) after 48 h, plate-adjusted (DMSO control set to 6) (ln(EXT), control-adjusted); higher = larger nematodes / less growth inhibition
# Test settings: 100 µM; exposure time 48 h
Structures can show the parent of a compound that is named as a salt.
Overview of reported mean nematode size ln(EXT) (ln) across a group of compounds:
Reply with the value as a number alone.

Consider the compound CCC(=O)C(CC(C)N(C)C)(c1ccccc1)c1ccccc1 (stereo not given) [Methadone Hydrochloride] and give its measured mean nematode size ln(EXT) (ln).
5.81

Quick one: `O=C(N[C@@H](c1ccccc1)[C@@H]1CCCCN1)c1cccc(C(F)(F)F)c1Cl`
4.58

Try this compound next: COCCOCCO [Diethylene glycol monomethyl ether]
5.94

Next compound: COc1nc(NC(C)C)nc(NC(C)C)n1 [Prometon]
5.61

Queued: `CN(C)C(=O)NC1(c2ccccc2)CCN(CC[C@@]2(c3ccc(F)c(F)c3)CN(C(=O)c3ccccc3)CCO2)CC1`
5.92

What about this compound? CC(C)CC(C)O (stereo not given) [4-Methyl-2-pentanol]
5.96

Record: CCCCC(CC)COC(=O)CCCCC(=O)OCC(CC)CCCC (stereo not given) [Di(2-ethylhexyl)adipate]
5.82

And for CCCN(CCC)c1c([N+](=O)[O-])cc(C(F)(F)F)c(N)c1[N+](=O)[O-] [Prodiamine] ?
5.92

---
Report mean nematode size ln(EXT) (ln) for CC(C)(C)C(=O)C(Oc1ccc(Cl)cc1)n1cncn1 (stereo not given) [Triadimefon] please.
5.91

Next compound up: CCCCC(CC)CO (stereo not given) [2-Ethyl-1-hexanol]
5.85

Input CC1(C)C(C=C(Cl)Cl)C1C(=O)OCc1cccc(Oc2ccccc2)c1 (stereo not given) [Permethrin]
4.98

Same lookup for Cc1ccc(N)cc1 [4-Methyl-benzeneamine] , please.
5.85

`Cc1cc(CCN2CCN(c3nsc4ccccc34)CC2)cc2c1NC(=O)CC2(C)C` ?
4.01

Would you mind doing Cn1cnc2c1c(=O)[nH]c(=O)n2C [Theobromine] as well?
5.86

Query COC(=O)c1ccccc1C(=O)O [Methyl hydrogen phthalate] next
6.14

====

# System: Caenorhabditis elegans N2
# Assay text: mean nematode size ln(EXT) after 48 h, plate-adjusted (DMSO control set to 6) (ln(EXT), control-adjusted); higher = larger nematodes / less growth inhibition
# Test settings: 0.5 µM; exposure time 48 h
Structures can show the parent of a compound that is named as a salt.
Catalogue of mean nematode size ln(EXT) (ln) values
Give a plain numeric answer without units written out.

Solved cases (5 shown):
// mean nematode size ln(EXT) (ln) lookup, key: `c1ccc2cc3ccccc3cc2c1`
5.97

And the next one, `CC/C(=C(\c1ccccc1)c1ccc(OCCN(C)C)cc1)c1ccccc1` ?
5.79

Similarly, `COc1cc(-c2ccc(N)c(OC)c2)ccc1N` ?
6

Also `CO/C=C(/C(=O)OC)c1ccccc1Oc1cc(Oc2ccccc2C#N)ncn1` , if possible.
5.84

OCC1CO1 (stereo unspecified) , same question.
5.87

Next:
// query mean nematode size ln(EXT) (ln) value for entry `CO/C=C(/C(=O)OC)c1ccccc1COc1cccc(C(F)(F)F)n1`
5.95

Item: `Cc1cc(Cc2ccc(N)c(C)c2)ccc1N`
5.83

Another: `CCNc1nc(Cl)nc(NC(C)C)n1`
5.54

Please give the result for Oc1ccc2c(c1)-c1ccccc1C2 [3-Hydroxyfluorene] too.
5.81

Let us now turn to `CN1CSC(=S)N(C)C1`
5.73

Same again, this time with `C#CCN1C(=O)COc2cc(F)c(N3C(=O)C4=C(CCCC4)C3=O)cc21`
5.98

Also need N#CN [Cyanamide] , thanks.
5.91

Now consider CCCCOC(=O)c1ccccc1C(=O)OCCCC [Dibutyl phthalate] and answer again.
6.09

Check `CC(C)Nc1nc(Cl)nc(NC(C)C)n1` too.
5.99

Please answer likewise for `CCCCCCCCCCCCCCC`
5.88

Moving on to the next compound: `CN(C)c1nc(=O)n(C2CCCCC2)c(=O)n1C`
5.85

// query: `CC(C)=CCC/C(C)=C/C=O`
5.72

// same read-out, input: O=S(=O)(O)C(F)(F)C(F)(F)C(F)(F)C(F)(F)C(F)(F)C(F)(F)C(F)(F)C(F)(F)F [Heptadecafluorooctanesulfonic acid potassium salt]
5.46

Repeat with CCOP(=O)(SC(C)CC)N1CCSC1=O (stereo unspecified) [Fosthiazate]
5.92

Same question for `CN(C)C(=S)SSC(=S)N(C)C` please.
6

What about this compound? ClC1=C(Cl)C2(Cl)C3C(Cl)C(Cl)CC3C1(Cl)C2(Cl)Cl (stereo unspecified)
5.98

Same question for `CCCCCCCCCCCCO` please.
5.89

What about `CCCCCOC(=O)COc1cc(N2C(=O)C3=C(CCCC3)C2=O)c(F)cc1Cl` ?
5.98

Continue with `Cc1oc(-c2ccccc2)nc1CCOc1ccc(C[C@H](Nc2ccccc2C(=O)c2ccccc2)C(=O)O)cc1`
5.87

# repeat for CCC(C)n1c(=O)[nH]c(C)c(Br)c1=O (stereo unspecified)
6.06

Next: `CCNC(=O)NC(=O)/C(C#N)=N/OC`
6.18

====

# System: Caenorhabditis elegans N2
# Assay text: mean nematode size ln(EXT) after 48 h, plate-adjusted (DMSO control set to 6) (ln(EXT), control-adjusted); higher = larger nematodes / less growth inhibition
# Test settings: 0.5 µM; exposure time 48 h
Measured endpoint: mean nematode size ln(EXT) (ln)
Give the figure only, with no unit attached.

See these solved cases before continuing.
Would you kindly share the measured mean nematode size ln(EXT) (ln) for Cc1ccn2nc(S(=O)(=O)Nc3c(F)cccc3F)nc2n1 [Flumetsulam] ?
5.91

Also N#Cc1c(Cl)cccc1Cl [Dichlobenil] ?
5.93

And then COP(=S)(OC)SCN1C(=O)c2ccccc2C1=O [Phosmet] , what is it?
5.89

Continuing:
Name the recorded mean nematode size ln(EXT) (ln) for C=CCOC(=O)c1ccccc1C(=O)OCC=C [Diallyl phthalate] .
5.88

Could you do the same for CC(C)(C)C(O)C(Oc1ccc(Cl)cc1)n1cncn1 (centres undefined) [Triadimenol] , please?
5.84

What about CC/C(=N\OC/C=C/Cl)C1=C(O)CC(C2CCOCC2)CC1=O (centres undefined) [Tepraloxydim] ?
5.72

====

# Tested on: Caenorhabditis elegans N2
# Assay text: lowest effective concentration for larval growth inhibition (size below effect threshold); higher = less potent
# Test settings: exposure time 48 h
Measured endpoint: lowest effective concentration (µM)
Could you give me the number in µM? Just the number is fine.

Entry under review: `CN(C)c1ccc(Cc2ccc(N(C)C)cc2)cc1` . Reported lowest effective concentration?
100

Switching to the query record.
Reported lowest effective concentration for `Cc1ccc2ncccc2c1` : what is it?
200

====

# Tested on: Caenorhabditis elegans N2
# Assay text: AC50 for larval growth inhibition (Hill fit); higher = less potent
# Test settings: exposure time 48 h
Measured endpoint: AC50 for larval growth inhibition (µM)
Give a bare numeral; the unit µM is implied.

Recorded AC50 for larval growth inhibition, per entry:
Would you mind telling me what AC50 for larval growth inhibition value was observed for c1ccc2c(c1)oc1ccccc12 [Dibenzofuran] ?
126

What do we get for CCOP(=S)(OCC)Oc1ccc([N+](=O)[O-])cc1 [Parathion] ?
13.4

***
What does the record list as AC50 for larval growth inhibition for CCOP(=S)(OCC)SCSP(=S)(OCC)OCC [Ethion] ?
99.2

What would you report for COc1ccc(C(c2ccc(OC)cc2)C(Cl)(Cl)Cl)cc1 [Methoxychlor] ?
39

====

# Tested on: Caenorhabditis elegans N2
# Assay text: mean nematode size ln(EXT) after 48 h, plate-adjusted (DMSO control set to 6) (ln(EXT), control-adjusted); higher = larger nematodes / less growth inhibition
# Test settings: 100 µM; exposure time 48 h
Parameter: mean nematode size ln(EXT) (ln). Scope: all listed entries.

Quick one: mean nematode size ln(EXT) (ln) of `CCn1nc(C)c2c1C(=O)NCC(c1ccc(O)cc1)=N2` ?
5.9

Same lookup for CCN(Cc1cccc(S(=O)(=O)O)c1)c1ccc(C(=C2C=CC(=[N+](CC)Cc3cccc(S(=O)(=O)O)c3)C=C2)c2ccccc2S(=O)(=O)[O-])cc1 [FD & C Blue no. 1] , please.
5.92

And the next one, CC(C)CCCCCCOC(=O)C1CCCCC1C(=O)OCCCCCCC(C)C (configuration not stated) ?
5.84

Subsequent entry: CC(C)Oc1cc(-n2nc(C(C)(C)C)oc2=O)c(Cl)cc1Cl [Oxadiazon]
5.95

Try this compound next: Cc1c2ccccc2c(C)c2c1ccc1ccccc12 [7,12-Dimethylbenz(a)anthracene]
4.89

Now consider OCCOc1ccccc1 [Phenoxyethanol] and answer again.
5.99

Now the compound CS(=O)(=O)NC(=O)c1cc(Oc2ccc(C(F)(F)F)cc2Cl)ccc1[N+](=O)[O-] [Fomesafen]
6

Same thing, different compound: CCCCCOC(=O)c1ccccc1C(=O)OCCCCC [Dipentyl phthalate]
5.81

Would you mind doing `CSc1ccc(Oc2ccc(S(N)(=O)=O)cc2CN(C)C)cc1C` as well?
5.69

Moving on to the next compound: Nc1ccc(N=Nc2ccccc2)cc1 [4-Aminoazobenzene]
3.92

New cases:
So what's the measured mean nematode size ln(EXT) (ln) for this one? `C[C@@H](Oc1ccc(CNC(=O)c2cccnc2Oc2ccc3c(c2)OCO3)c(F)c1)C(=O)O`
5.86

Then what about the compound COC(=O)N(C(=O)N1CO[C@@]2(C(=O)OC)Cc3cc(Cl)ccc3C2=N1)c1ccc(OC(F)(F)F)cc1 [Indoxacarb] ?
3.56

Similarly, COC(=O)c1ccccc1O [Methyl salicylate] ?
5.78

Another compound to look at: CCOC(=O)CCC(=O)OCC [Butanedioic acid, diethyl ester]
5.98

Queued: CN(Cc1cnc2nc(N)nc(N)c2n1)c1ccc(C(=O)N[C@@H](CCC(=O)O)C(=O)O)cc1 [Methotrexate]
5.82

`CCOC(=O)[C@]1(c2ccccc2)Oc2ccccc2[C@@H]1N` , same question.
5.43
